Taken from patent US4975450A.

Experiment: in vivo
Settings: rat, sc
property.name: LD50 (mg/kg)
One number for each entry, in mg/kg.

Exercise: Consider the compound CCCCCOc1cccc(NC(=O)O[C@@H]2CCCC[C@H]2N2CCCC2)c1 (relative stereo) and give its measured LD50.
Solution: 295

* * *

Test system: rat
Conditions: in vivo, sc
property.name: LD50 (mg/kg)
One number for each entry, in mg/kg.

Exercise: Dear colleague, I am looking for the recorded LD50 of the following compound: CCCCCOc1cccc(NC(=O)O[C@@H]2CCCC[C@H]2N2CCCC2)c1 (relative stereo) [substance of the formula]
Solution: 283

* * *

Tested on: mice
Settings: mouse, in vivo, ip
property.name: LD50 (mg/kg)
Answers are plain numbers, in mg/kg.

Exercise: Form field - read-out: LD50; system: mice; submitted item: CCCCCOc1cccc(NC(=O)O[C@@H]2CCCC[C@H]2N2CCCC2)c1 (relative stereo)
Solution: 59
